Tested on: Cyclin-dependent kinase 4 (Homo sapiens);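 also: enzyme tested as the CDK4–cyclin D complex, with the value reported as mean percent inhibition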
Test context: at 1 µM
Hi there, I'd appreciate the recorded inhibition for every entry that follows.
One number for each entry, in %.

- Compound: "Nc1nccc(-c2c(-c3ccc(F)cc3)ncn2C2CCC(O)CC2)n1 (stereo not given)"
  Quantity measured: "inhibition"
  Reported result: 1.17

Give inhibition for all compounds that follow.
1. COc1cc(C)c(N(C)C(=O)CN(C)C)cc1Nc1nc(Nc2cccc(F)c2C(N)=O)c2cc[nH]c2n1
2. COc1cc(Nc2ncc(-c3ccccc3)o2)cc(OC)c1OC
3. c1ccc(-c2n[nH]cc2-c2ccnc(-c3ccc(OCCN4CCOCC4)cc3)c2)nc1
4. C/C(Nc1ccc(S(N)(=O)=O)cc1)=C1/C(=O)Nc2ccccc21

1. -2.23
2. 1.93
3. 6.08
4. 32

For each listed entry, give its inhibition.
1. COc1cc2ncn(-c3cc(OCCc4ccccc4)c(C(N)=O)s3)c2cc1OC
2. CS(=O)(=O)CCNCc1ccc(-c2ccc3ncnc(Nc4ccc(OCc5ccccc5)c(Br)c4)c3c2)o1
3. COc1cc2ncn(-c3cc(OCc4cccs4)c(C(N)=O)s3)c2cc1OC

1.87
-0.83
-2.26

* * *

Tested on: cGMP-dependent protein kinase 1 (Homo sapiens)
Test context: at 0.1 µM
Description: GSK_PKIS: PRKG1 mean inhibition at 0.1 uM [Nanosyn]
Quantity measured: inhibition (%)
One number for each entry, in %.

Solved cases (3 shown):
- Compound: "COc1cc2ncn(-c3cc(OCCc4ccccc4)c(C(N)=O)s3)c2cc1OC"
  Tested on: "cGMP-dependent protein kinase 1 (Homo sapiens)"
  Quantity measured: "inhibition"
  Reported result: 2.33
- Compound: "COc1cc(N2CCN(C(C)C)CC2)ccc1Nc1nc(Nc2ccc(F)cc2C(=O)NC[C@@H](O)CO)c2cc[nH]c2n1"
  Tested on: "cGMP-dependent protein kinase 1 (Homo sapiens)"
  Quantity measured: "inhibition"
  Reported result: 7.74
- Compound: "CN(c1ccc(NC(=O)Nc2c(Cl)cccc2Cl)cc1)c1ccnc(Nc2cccc(CS(C)(=O)=O)c2)n1"
  Tested on: "cGMP-dependent protein kinase 1 (Homo sapiens)"
  Quantity measured: "inhibition"
  Reported result: 3.11

Could you tell me inhibition for each of these compounds? They are listed below.
1. Fc1ccc(-c2ncn(C3CCNCC3)c2-c2ccnc(Oc3ccc(F)c(F)c3)n2)cc1
2. COc1cccc(-n2cnc3c(N/N=C/c4ccncc4)ncnc32)c1
3. Cc1ccc(C(=O)NC(C)C)cc1-c1ccc(C(=O)NCC2CC2)cc1
4. CCN(CC)Cc1ccc(Nc2nccc(-c3cnn4ncccc34)n2)cc1
5. NC(=O)c1cc(-c2ccncc2)cc(-c2ccccc2)c1N
6. COc1cc(Nc2ncc(-c3ccccc3)o2)cc(OC)c1OC

[2.42, 0.67, -3.24, 3.48, 3.61, 1.84]

* * *

Tested on: Non-receptor tyrosine-protein kinase TNK1 (Homo sapiens) (UniProt Q13470);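 also: values are averaged percent inhibition of TNK1, compounds from the GSK published kinase inhibitor set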
Sequence (Q13470 whole entry): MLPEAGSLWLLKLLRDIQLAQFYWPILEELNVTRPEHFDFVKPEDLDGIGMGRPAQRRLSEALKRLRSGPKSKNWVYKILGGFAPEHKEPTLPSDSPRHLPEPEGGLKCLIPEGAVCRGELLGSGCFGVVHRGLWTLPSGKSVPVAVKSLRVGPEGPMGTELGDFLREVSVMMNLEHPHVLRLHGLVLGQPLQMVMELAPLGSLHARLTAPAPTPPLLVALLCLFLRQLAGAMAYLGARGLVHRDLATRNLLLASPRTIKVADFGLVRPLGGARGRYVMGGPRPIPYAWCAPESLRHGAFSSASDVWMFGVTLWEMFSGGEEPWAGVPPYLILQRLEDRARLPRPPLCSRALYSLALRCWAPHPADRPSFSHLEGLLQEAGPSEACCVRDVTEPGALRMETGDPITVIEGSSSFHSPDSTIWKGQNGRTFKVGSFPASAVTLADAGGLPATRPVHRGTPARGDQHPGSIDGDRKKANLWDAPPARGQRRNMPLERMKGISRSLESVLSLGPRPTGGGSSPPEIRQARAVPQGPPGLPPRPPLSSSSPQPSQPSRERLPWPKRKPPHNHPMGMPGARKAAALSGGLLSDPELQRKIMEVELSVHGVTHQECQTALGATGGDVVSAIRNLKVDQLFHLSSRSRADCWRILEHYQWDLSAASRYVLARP
Test context: at 1 µM
Please provide measured inhibition for the entries that follow.
Answers are plain numbers, in %.

- Item smiles: "NC(=O)c1cc(-c2ccc(F)cc2)cc(-c2ccncc2)c1N"
  Reported result: 7.48
- Item smiles: "COc1ccc2cc(-c3c(-c4ccncc4)nc(-c4ccc(S(C)(=O)=O)cc4C)n3C)ccc2c1"
  Reported result: 29.3
- Item smiles: "COc1cccc(/C=N/Nc2ncnc3c2cnn3-c2cccc(OC)c2)c1"
  Reported result: 3.79

Hi there! I need inhibition for each item below, if you can.
1. CCc1cccc(CC)c1/C=C/c1cncc(C(=O)NC)c1
2. CCC(=O)Nc1ccc(C)c(-c2ccc(C(=O)NCC3CC3)cc2)c1
3. NS(=O)(=O)c1ccc(Nc2cc(-c3ccc(O)c(F)c3)n[nH]2)cc1
4. O=C1Nc2ccc(I)cc2C1=Cc1cc(Br)c(O)c(Br)c1
5. FC(F)(F)c1cccc(Nc2nccc(-c3cnn4nc(-c5ccccc5)ccc34)n2)c1

1: 10.2; 2: 6.35; 3: 24.3; 4: 84.5; 5: 8.59

* * *

Tested on: Dual specificity protein kinase CLK2 (Homo sapiens);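 also: reported values are mean percent inhibition of CLK2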
Test context: at 1 µM
Quantity measured: inhibition (%)
One number for each entry, in %.

These recorded examples may help you get a feel for the data.
- Item smiles: "C[C@@H](Oc1cc(-n2cnc3ccc(OCC4CCN(C)CC4)cc32)sc1C(N)=O)c1ccccc1Cl"
  Reported result: 7.9
- Item smiles: "CN(C)c1ccc2c(c1)/C(=C/Nc1ccc(S(N)(=O)=O)cc1)C(=O)N2"
  Reported result: 11
- Item smiles: "O=C1Nc2ccccc2/C1=C/Nc1ccc(-n2cncn2)cc1"
  Reported result: 21.6
- Item smiles: "O=C(NCC1CC1)c1ccc(-c2cccc(C(=O)NC3CC3)c2)cc1"
  Reported result: 1.77
- Item smiles: "O=C(Nc1ccc(Oc2ccc3[nH]c(NC(=O)c4ccccc4)nc3c2)cc1)Nc1cc(C(F)(F)F)ccc1F"
  Reported result: 1.05
- Item smiles: "N#Cc1ccc(Oc2nccc(-c3c(-c4ccc(F)cc4)ncn3C3CCNCC3)n2)cc1"
  Reported result: -0.9

Report inhibition for each item below.
1. NC(=O)c1cc(-c2ccc(F)cc2)cc(-c2ccncc2)c1N
2. CN(C)CCCNc1nccc(-c2c(-c3ccc(F)cc3)nn3cc(C(F)(F)F)ccc23)n1
3. CS(=O)(=O)CCNCc1cc(-c2cc3c(Nc4ccc(OCc5cccc(F)c5)c(Cl)c4)ncnc3s2)cs1
4. O=C(Nc1n[nH]c2nc(-c3ccco3)ccc12)C1CC1

1: 1.24; 2: -0.07; 3: 2.14; 4: -0.4

* * *

Test system: Tyrosine-protein kinase ABL1 (Homo sapiens), P00519 [T315I]
Test context: at 1 µM
Quantity measured: inhibition (%)
One number for each entry, in %.

Example results:
- Compound: "CN(c1ccc(NC(=O)Nc2c(Cl)cccc2Cl)cc1)c1ccnc(Nc2cccc(CS(C)(=O)=O)c2)n1"
  Reported result: 73.2
- Compound: "Cc1ccc(C(=O)NC(C)C)cc1-c1ccc(C(=O)NCC2CC2)cc1"
  Reported result: 0.58

For each of the items listed, what is its inhibition?
1. CN1CCN(CCCNc2nc3ccc(Oc4ccc(NC(=O)Nc5cc(C(F)(F)F)ccc5F)cc4)cc3[nH]2)CC1
2. CN(C)CCCNc1nccc(-c2c(-c3ccc(F)cc3)nn3cc(C(F)(F)F)ccc23)n1
3. COc1ccc2cc(-c3c(-c4ccncc4)nc(-c4ccc(S(C)(=O)=O)cc4C)n3C)ccc2c1
4. Fc1ccc(-c2ncn(C3CCNCC3)c2-c2ccnc(Oc3ccc(Oc4ccccc4)cc3)n2)cc1
5. COc1ccc2cc(-c3c(-c4ccncc4)nc(-c4ccc([S+](C)[O-])cc4C)n3C)ccc2c1 (centres undefined)
6. NC(=O)Cc1ccccc1Oc1nccc(-c2c(-c3ccc(F)cc3)ncn2C2CCNCC2)n1
7. NC(=O)c1cc(-c2ccc(F)cc2)cc(-c2ccncc2)c1N

32
2.66
42.6
1.98
54.5
-0.82
4.82

* * *

Exercise: for every item that follows, state its recorded inhibition.
Tested on: Tyrosine-protein kinase ABL2 (Homo sapiens) (UniProt P42684);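 also: values are mean percent inhibition of ARG (ABL2), measured within the GSK PKIS set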
Sequence (P42684 whole entry): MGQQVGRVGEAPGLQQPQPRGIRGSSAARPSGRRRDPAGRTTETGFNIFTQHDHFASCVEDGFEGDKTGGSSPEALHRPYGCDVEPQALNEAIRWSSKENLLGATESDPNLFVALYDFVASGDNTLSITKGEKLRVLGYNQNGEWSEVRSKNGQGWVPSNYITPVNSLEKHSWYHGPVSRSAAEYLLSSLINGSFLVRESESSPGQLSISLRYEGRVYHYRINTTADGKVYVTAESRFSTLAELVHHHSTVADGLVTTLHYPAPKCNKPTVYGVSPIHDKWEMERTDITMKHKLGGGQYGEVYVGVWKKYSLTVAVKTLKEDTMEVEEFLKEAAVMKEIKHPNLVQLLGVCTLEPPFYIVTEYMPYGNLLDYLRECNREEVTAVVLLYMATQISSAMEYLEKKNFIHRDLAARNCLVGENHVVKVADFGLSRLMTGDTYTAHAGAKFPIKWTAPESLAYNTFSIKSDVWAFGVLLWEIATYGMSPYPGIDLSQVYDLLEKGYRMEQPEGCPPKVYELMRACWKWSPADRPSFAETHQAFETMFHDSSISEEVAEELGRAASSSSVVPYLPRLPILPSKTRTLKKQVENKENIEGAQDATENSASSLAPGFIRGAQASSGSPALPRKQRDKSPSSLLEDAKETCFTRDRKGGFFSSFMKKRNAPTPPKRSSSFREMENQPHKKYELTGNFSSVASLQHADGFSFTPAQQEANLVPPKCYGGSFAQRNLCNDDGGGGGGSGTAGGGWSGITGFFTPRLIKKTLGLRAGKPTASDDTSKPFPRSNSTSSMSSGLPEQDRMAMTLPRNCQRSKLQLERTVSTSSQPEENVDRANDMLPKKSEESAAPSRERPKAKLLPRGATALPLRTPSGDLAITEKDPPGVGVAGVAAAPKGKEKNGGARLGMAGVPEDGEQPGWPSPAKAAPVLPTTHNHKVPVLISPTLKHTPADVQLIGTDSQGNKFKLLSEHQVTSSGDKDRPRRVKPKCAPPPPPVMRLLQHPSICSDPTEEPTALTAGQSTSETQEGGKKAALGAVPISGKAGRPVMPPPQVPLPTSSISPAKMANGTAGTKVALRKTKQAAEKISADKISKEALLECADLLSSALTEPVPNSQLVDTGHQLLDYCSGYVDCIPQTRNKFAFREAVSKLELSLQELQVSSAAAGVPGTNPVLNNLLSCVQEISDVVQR
Test context: at 0.1 µM
One number for each entry, in %.

Recorded inhibition, per entry:
- Item smiles: "NC(=O)c1cc(-c2ccncc2)cc(-c2ccccc2)c1N"
  inhibition, %: 6.19
- Item smiles: "CN1CCN(CCCNc2nc3ccc(Oc4ccc(NC(=O)Nc5cc(C(F)(F)F)ccc5F)cc4)cc3[nH]2)CC1"
  inhibition, %: -0.15
- Item smiles: "COc1ccc(C2=C(N3CCc4ccccc43)C(=O)NC2=O)cc1"
  inhibition, %: 6.76

State the recorded inhibition for every item in the following list.
1. O=C(Nc1n[nH]c2nc(-c3ccco3)ccc12)C1CC1
2. COc1cc(N2CCN(C(C)C)CC2)ccc1Nc1nc(Nc2ccc(F)cc2C(=O)NC[C@@H](O)CO)c2cc[nH]c2n1

[4.39, -1.39]

* * *

Tested on: Dual specificity tyrosine-phosphorylation-regulated kinase 1B (Homo sapiens);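 also: values are mean percent inhibition of DYRK1B, from the GSK_PKIS set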
Test context: at 1 µM
Could you please report measured inhibition for the items listed next?
Numbers only, in %.

- Compound: "COc1cc(N2CCN(C(C)C)CC2)ccc1Nc1nc(Nc2ccc(F)cc2C(=O)NC[C@@H](O)CO)c2cc[nH]c2n1"
  Unit abbrev: "%"
  inhibition: 12
- Compound: "COc1ccc2cc(-c3c(-c4ccncc4)nc(-c4ccc(S(C)(=O)=O)cc4C)n3C)ccc2c1"
  Unit abbrev: "%"
  inhibition: 2.36
- Compound: "COc1ccc2cc(-c3c(-c4ccncc4)nc(-c4ccc([S+](C)[O-])cc4C)n3C)ccc2c1 (configuration not stated)"
  Unit abbrev: "%"
  inhibition: 6.41
- Compound: "COc1cc(Nc2ncc(-c3ccccc3)o2)cc(OC)c1OC"
  Unit abbrev: "%"
  inhibition: 3.72
- Compound: "O=C(NCC1CC1)c1ccc(-c2cccc(C(=O)NC3CC3)c2)cc1"
  Unit abbrev: "%"
  inhibition: 1.93

// batch mode: one inhibition value per listed entry
1. Fc1ccc(-c2ncn(C3CCNCC3)c2-c2ccnc(Oc3ccc(Oc4ccccc4)cc3)n2)cc1
2. NS(=O)(=O)c1ccc(Nc2cc(-c3ccc(O)c(F)c3)n[nH]2)cc1
3. COc1cc2ncn(-c3cc(OCc4ccccc4C(F)(F)F)c(C(C)=O)s3)c2cc1OC

1: 0.42; 2: 5.44; 3: 0.32

Answer for every listed entry: what is its inhibition? The entries follow.
1. CCN(CC)Cc1ccc(Nc2nccc(-c3cnn4ncccc34)n2)cc1
2. CCS(=O)(=O)c1ccc(OC)c(Nc2ncc(-c3ccccc3Cl)o2)c1
3. COc1cc(Nc2ncc3c(C)nc(-c4cccc(Oc5ccccc5)c4)n3n2)cc(OC)c1OC
4. CCc1nccc2c1nc(-c1nonc1N)n2CC
5. COc1ccc(-c2ccc3c(NC(=O)C4CC4)n[nH]c3n2)cc1

[69.2, 5.7, 2.74, 6.3, 0.04]

Source: ChEMBL document CHEMBL1961873
